Reference source for all entries: patent US9302999B2

As shown below, each of these compounds has a reported Plant response rating, Lambsquarters value.
- System: lambsquarters (Chenopodium album)
- Method Description: Test C pre-/postemergence: lambsquarters
- Format: in vivo
- Conditions Used: Postemergence, 125 g ai/ha; scale 0 to 100, 0 no effect, 100 complete control
Readout Name: Plant response rating, Lambsquarters

* Cc1nn(-c2ccc(F)c(F)c2)nc1Oc1ccnc(C(F)(F)F)c1 | 95
* Cc1nn(-c2ccc(F)cc2)nc1Cc1ccnc(C(F)(F)F)c1 | 100
* CCOc1nn(-c2ccc(F)cc2)nc1Cc1ccnc(C(F)F)c1 | 95
* Cc1nn(-c2ccc(C(F)(F)F)cc2)nc1Cc1cccc(C(F)(F)F)c1 | 98
* CCc1nn(-c2ccc(F)cc2)nc1Oc1ccnc(C(F)(F)F)c1 | 95
